From: the supplement of paper PMC3334620

Biological target: Vhr1 (UniProt P40522)
Sequence: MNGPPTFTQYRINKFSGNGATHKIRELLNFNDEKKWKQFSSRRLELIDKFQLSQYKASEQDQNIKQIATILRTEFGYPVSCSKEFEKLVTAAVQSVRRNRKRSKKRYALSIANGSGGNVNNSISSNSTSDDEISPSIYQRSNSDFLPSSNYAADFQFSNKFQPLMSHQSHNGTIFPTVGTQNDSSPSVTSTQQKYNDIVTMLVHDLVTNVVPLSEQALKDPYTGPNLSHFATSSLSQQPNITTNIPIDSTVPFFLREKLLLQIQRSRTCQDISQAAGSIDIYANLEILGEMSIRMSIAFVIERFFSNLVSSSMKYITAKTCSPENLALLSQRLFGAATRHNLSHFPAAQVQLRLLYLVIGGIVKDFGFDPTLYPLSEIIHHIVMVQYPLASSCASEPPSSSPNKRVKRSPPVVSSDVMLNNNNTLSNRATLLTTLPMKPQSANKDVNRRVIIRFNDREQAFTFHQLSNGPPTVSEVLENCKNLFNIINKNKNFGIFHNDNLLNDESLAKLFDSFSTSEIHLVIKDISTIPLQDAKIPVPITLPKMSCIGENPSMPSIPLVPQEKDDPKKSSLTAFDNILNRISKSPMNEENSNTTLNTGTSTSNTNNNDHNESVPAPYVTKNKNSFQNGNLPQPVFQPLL
Assay: PBM E-score (8-mer binding enrichment) (E-score (-0.5 to 0.5)); higher = stronger / more preferred TF binding
Conditions: protein concentration: 200 nM; construct: GST-full length
Over roughly 33,000 sequences, “E-score (-0.5 to 0.5)” has its median near -0.012; the highest 2% begin near 0.27. Only a selection was taken, and the highest values are over-represented in it overall.
Note to self: values exactly at 0.2 are T. So PBM E-score at or above 0.2 is T, below is F.

INSERT INTO measurements (residue_codes, system, cat) VALUES
  ('AACTCGGA', 'Vhr1 (UniProt P40522)', 'F'),
  ('TACTCGCA', 'Vhr1 (UniProt P40522)', 'T'),
  ('CGTCGACG', 'Vhr1 (UniProt P40522)', 'F'),
  ('TAACAGAA', 'Vhr1 (UniProt P40522)', 'F'),
  ('GATCCCTA', 'Vhr1 (UniProt P40522)', 'F'),
  ('ATTGACTA', 'Vhr1 (UniProt P40522)', 'T'),
  ('GGCGAAGA', 'Vhr1 (UniProt P40522)', 'F'),
  ('ACTGACCA', 'Vhr1 (UniProt P40522)', 'F'),
  ('GCGAGTCC', 'Vhr1 (UniProt P40522)', 'T'),
  ('GCGCGAAC', 'Vhr1 (UniProt P40522)', 'F'),
  ('GACTCGCA', 'Vhr1 (UniProt P40522)', 'T'),
  ('AATCATTA', 'Vhr1 (UniProt P40522)', 'T'),
  ('AACTCGTA', 'Vhr1 (UniProt P40522)', 'F'),
  ('AATCAGGT', 'Vhr1 (UniProt P40522)', 'T'),
  ('AATCAGGG', 'Vhr1 (UniProt P40522)', 'F'),
  ('AATCAAGG', 'Vhr1 (UniProt P40522)', 'F'),
  ('ACGATGCC', 'Vhr1 (UniProt P40522)', 'F'),
  ('ATGACTTC', 'Vhr1 (UniProt P40522)', 'T'),
  ('CTGACTTA', 'Vhr1 (UniProt P40522)', 'F'),
  ('CAGAATGA', 'Vhr1 (UniProt P40522)', 'F'),
  ('ATGAATCG', 'Vhr1 (UniProt P40522)', 'T'),
  ('GCGTGGCA', 'Vhr1 (UniProt P40522)', 'F'),
  ('GCGAGTCA', 'Vhr1 (UniProt P40522)', 'T'),
  ('AGGACTAA', 'Vhr1 (UniProt P40522)', 'F'),
  ('CCTGACAA', 'Vhr1 (UniProt P40522)', 'F'),
  ('CCAACGCC', 'Vhr1 (UniProt P40522)', 'F'),
  ('AGGTCGTA', 'Vhr1 (UniProt P40522)', 'F'),
  ('ACACAGCC', 'Vhr1 (UniProt P40522)', 'T'),
  ('CTTTGGCC', 'Vhr1 (UniProt P40522)', 'F'),
  ('CACTCGCC', 'Vhr1 (UniProt P40522)', 'F'),
  ('GGTTGTGA', 'Vhr1 (UniProt P40522)', 'F'),
  ('AATAGGCA', 'Vhr1 (UniProt P40522)', 'F'),
  ('AATCATGG', 'Vhr1 (UniProt P40522)', 'T'),
  ('AGGACTAC', 'Vhr1 (UniProt P40522)', 'F'),
  ('ATCTCAGA', 'Vhr1 (UniProt P40522)', 'F'),
  ('ATATTGGG', 'Vhr1 (UniProt P40522)', 'F'),
  ('GAGCGAAA', 'Vhr1 (UniProt P40522)', 'F'),
  ('AAAGTTCG', 'Vhr1 (UniProt P40522)', 'F'),
  ('CCGAGTCA', 'Vhr1 (UniProt P40522)', 'T'),
  ('AGTCGCAG', 'Vhr1 (UniProt P40522)', 'T'),
  ('CCTATTAG', 'Vhr1 (UniProt P40522)', 'F'),
  ('CCACAGCA', 'Vhr1 (UniProt P40522)', 'F'),
  ('AGTCGACT', 'Vhr1 (UniProt P40522)', 'T'),
  ('ACACAGCG', 'Vhr1 (UniProt P40522)', 'T'),
  ('AGTCGCAC', 'Vhr1 (UniProt P40522)', 'T'),
  ('CACTCGTA', 'Vhr1 (UniProt P40522)', 'F'),
  ('CCTGACGA', 'Vhr1 (UniProt P40522)', 'F'),
  ('GACCCGCC', 'Vhr1 (UniProt P40522)', 'T'),
  ('CTAGAGGC', 'Vhr1 (UniProt P40522)', 'F'),
  ('GTGTGTGA', 'Vhr1 (UniProt P40522)', 'T'),
  ('CTGAATCA', 'Vhr1 (UniProt P40522)', 'T'),
  ('CACCCGCA', 'Vhr1 (UniProt P40522)', 'F'),
  ('ATGACTAA', 'Vhr1 (UniProt P40522)', 'T'),
  ('GACGCAAC', 'Vhr1 (UniProt P40522)', 'F'),
  ('CGTCTCCA', 'Vhr1 (UniProt P40522)', 'F'),
  ('TATCATGA', 'Vhr1 (UniProt P40522)', 'F'),
  ('GGCTCCTA', 'Vhr1 (UniProt P40522)', 'F'),
  ('AATCATTC', 'Vhr1 (UniProt P40522)', 'T'),
  ('CTGCAGAA', 'Vhr1 (UniProt P40522)', 'F'),
  ('CATTCAGC', 'Vhr1 (UniProt P40522)', 'F'),
  ('GCAGTCTA', 'Vhr1 (UniProt P40522)', 'F'),
  ('GCACACCC', 'Vhr1 (UniProt P40522)', 'F'),
  ('GACTCGCC', 'Vhr1 (UniProt P40522)', 'T'),
  ('ACGCTCCT', 'Vhr1 (UniProt P40522)', 'F'),
  ('AGCATCTC', 'Vhr1 (UniProt P40522)', 'F'),
  ('GTGAATAA', 'Vhr1 (UniProt P40522)', 'F'),
  ('CTGAATCC', 'Vhr1 (UniProt P40522)', 'T'),
  ('CCGAGTCC', 'Vhr1 (UniProt P40522)', 'F'),
  ('GCACAGCA', 'Vhr1 (UniProt P40522)', 'F'),
  ('CTAGCCTA', 'Vhr1 (UniProt P40522)', 'F'),
  ('AGATTGGA', 'Vhr1 (UniProt P40522)', 'F'),
  ('AAACCTAA', 'Vhr1 (UniProt P40522)', 'F'),
  ('AACCCGCC', 'Vhr1 (UniProt P40522)', 'F'),
  ('ATAGCGCC', 'Vhr1 (UniProt P40522)', 'F'),
  ('GGTCGCAC', 'Vhr1 (UniProt P40522)', 'F'),
  ('AAGACTAA', 'Vhr1 (UniProt P40522)', 'F'),
  ('ACTCGACG', 'Vhr1 (UniProt P40522)', 'T'),
  ('ATGAATCA', 'Vhr1 (UniProt P40522)', 'T'),
  ('GGTCGACA', 'Vhr1 (UniProt P40522)', 'F'),
  ('AATCATTG', 'Vhr1 (UniProt P40522)', 'T'),
  ('ACAGTGGG', 'Vhr1 (UniProt P40522)', 'F'),
  ('GACCCGCA', 'Vhr1 (UniProt P40522)', 'F'),
  ('GCGTGTGA', 'Vhr1 (UniProt P40522)', 'F'),
  ('TATGGAGA', 'Vhr1 (UniProt P40522)', 'F'),
  ('AGGTGGAA', 'Vhr1 (UniProt P40522)', 'F'),
  ('ACAGTGGA', 'Vhr1 (UniProt P40522)', 'F'),
  ('AAGACTAC', 'Vhr1 (UniProt P40522)', 'F'),
  ('GTTTCCTA', 'Vhr1 (UniProt P40522)', 'F'),
  ('AATCATGT', 'Vhr1 (UniProt P40522)', 'T');
